The values you see were collected from patent US20080292688A1.

assay: physchem; settings: aqueous buffer, Solubility of RA
quantity.name: solubility

1. CC1=C(/C=C/C(C)=C/C=C/C(C)=C/C(=O)O)C(C)(C)CCC1 [RA, All-Trans Retinoic Acid]	< 0.1 µg/mL

---

test: physchem; conditions: saline or isotonic, Solubility of RA
quantity.name: solubility (µg/mL)

1) CC1=C(/C=C/C(C)=C/C=C/C(C)=C/C(=O)O)C(C)(C)CCC1 [RA, All-Trans Retinoic Acid]	4
